Hello, the source for this data is patent US8895585B2, in case you need it.

# target.desc: glutathione S-transferase (GST)-fused full-length human Syk protein (Homo sapiens)
# Construct: (GST)-fused full-length human Syk protein; GST (glutathione S-transferase); purchased Carna Biosciences
# measurement.protocol: Syk enzyme assay
# Type: biochemical
# test.context: Syk enzyme assay, Test Example 1; read-out: IC50 of Syk-inhibitory activity
recorded.endpoint: IC50

NC(=O)c1cc(F)c(NC2CCCC[C@@H]2N)nc1Nc1cnc2c(NS(=O)(=O)Cc3ccccc3)cccc2c1 (stereo partly shown) : 0.01 to 0.05 µM

Note to self: IC50 recorded for `C[C@H](N)CNc1nc(Nc2cccc(-n3nccn3)c2)c(C(N)=O)cc1F` was < 0.01 µM

Note to self: IC50 recorded for `CNc1nc(Nc2ccc3ncccc3c2)c(C(N)=O)cc1F` was 0.1 to 1 µM

Note to self: IC50 recorded for `NC(=O)c1cc(F)c(N[C@@H]2CCCC[C@@H]2N)nc1Nc1ccn2cnnc2c1` was 0.01 to 0.05 µM
